System: KO-52 cells
Assay: Proliferation assay, spheroid-like growth, KO-52 (MLL wildtype control cell line)
Assay type: cell-based, human
Settings: Homo sapiens, 192 h, KO-52 control cells, 8 days, confluence as measure of spheroid size; read-out: spheroid assay_OneTime KO-52 IC50
Protocol: The anti-proliferative effect of menin/MLL protein/protein interaction inhibitor test compounds was assessed in human leukemia cell lines. […] In order to assess the anti-proliferative effects, 200 MOLM14 cells, or 300 KO-52 cells were seeded in 200 μl media per well in 96-well round bottom, ultra-low attachment plates (Costar, catalogue number 7007). […] Spheroid like growth was measured in real-time by live-cell imaging (IncuCyteZOOM, Essenbio, 4× objective) acquiring images at day 8. […]
metric-name: pIC50
Quick note: pIC50 means taking -log10 of the concentration in moles per liter.

# compound, pIC50
measured = [
    ("CC(C)[C@H]([C@H]1C[C@@H](N2CCC[C@H](O)C2)C1)N1CC2(CCN(c3ncnnc3Oc3ccc(F)cc3-c3cccnc3C3CC3)C2)C1 (single isomer, unassigned)", 5.33),
    ("CC(=O)N[C@H]1C[C@@H]([C@@H](C(C)C)N2CC3(CCN(c4ncnnc4Oc4ccc(F)cc4-c4nccnc4C4CC4)C3)C2)C1 (single isomer, unassigned)", 5.05),
]

Answer with reported pIC50 of `CC(C)[C@@H]([C@H]1C[C@@H](N2C[C@H]3COC[C@H]3C2)C1)N1CC2(CCN(c3ncnnc3Oc3ccc(F)cc3-c3cnc(C#N)nc3C3CC3)C2)C1`
5.59

Note down pIC50 recorded for CC(C)[C@H]([C@H]1C[C@@H](NC(=O)C2(F)CC2)C1)N1CC2(CCN(c3ncnnc3Oc3ccc(F)cc3-c3n[nH]c(=O)cc3C3CC3)C2)C1 (single isomer, unassigned)
5.00

---

Overview of reported IC50 across a group of molecules:
Target: menin/MLL (terbium chelate-labeled menin, FITC-MBM1 peptide) (Homo sapiens, UniProt O00255, T541A)
Construct: Menin (a.a 1-610-6xhis tag)
Sequence (O00255 with tags, fused parts or gaps T541A): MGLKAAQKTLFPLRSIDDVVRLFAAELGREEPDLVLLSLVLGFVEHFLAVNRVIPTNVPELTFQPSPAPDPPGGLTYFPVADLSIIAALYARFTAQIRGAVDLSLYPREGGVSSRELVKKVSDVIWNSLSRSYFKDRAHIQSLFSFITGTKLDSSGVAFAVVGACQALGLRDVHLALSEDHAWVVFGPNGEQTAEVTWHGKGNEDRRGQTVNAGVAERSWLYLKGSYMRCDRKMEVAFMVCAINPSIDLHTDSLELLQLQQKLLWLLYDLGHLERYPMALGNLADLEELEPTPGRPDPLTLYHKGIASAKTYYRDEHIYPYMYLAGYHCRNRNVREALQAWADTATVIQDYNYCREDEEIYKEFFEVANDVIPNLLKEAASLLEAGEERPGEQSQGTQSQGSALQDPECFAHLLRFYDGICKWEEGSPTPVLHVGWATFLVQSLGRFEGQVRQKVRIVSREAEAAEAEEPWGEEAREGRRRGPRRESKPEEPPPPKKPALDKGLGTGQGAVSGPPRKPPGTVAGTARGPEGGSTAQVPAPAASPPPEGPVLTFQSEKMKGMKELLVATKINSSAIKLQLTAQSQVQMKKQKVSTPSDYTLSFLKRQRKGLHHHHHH
Test: Menin/MLL homogenous time-resolved fluorescence (HTRF) assay
Conditions: 30 min incubation
Please respond with the number in nM and leave the unit unwritten.

# molecule, units, IC50
measured = [
    ("CC(C)C([C@H]1C[C@@H](NC(=O)CCN(C)C)C1)N1CC2(CCN(c3ncnnc3Oc3ccc(F)cc3-c3cncnc3C3CC3)C2)C1 (stereo partly drawn)", "nM", 0.1),
    ("CNC(=O)c1nnc(N[C@H]2C[C@@H]([C@@H](C(C)C)N3CC4(CCN(c5ncnnc5Oc5ccc(F)cc5-c5cncnc5C5CC5)C4)C3)C2)s1 (single isomer, unassigned)", "nM", 0.21),
]

# next molecule below
Give a short answer stating reported IC50 for CC(C)[C@@H]([C@H]1C[C@H](NC2CC2)C1)N1CC2(CCN(c3ncnnc3Oc3ccc(F)cc3-c3nnccc3C3CC3)C2)C1 (single isomer, unassigned) .
0.3

---

System: KO-52 cells
Experiment: Proliferation assay, spheroid-like growth, KO-52 (MLL wildtype control cell line)
Assay type: cell-based, human
Conditions: Homo sapiens, 192 h, KO-52 control cells, 8 days, confluence as measure of spheroid size; read-out: spheroid assay_OneTime KO-52 IC50
metric-name: pIC50
// scale note: pIC50 = -log10(conc_M); give the bare number

// known answers, use as guide
# compound, target-of-assay, metric-name, measurement
data = [
    ("CC(C)[C@H](C1CCN(C[C@H]2C[C@H](O)C2)CC1)N1CC2(CCN(c3ncnnc3Oc3ccc(F)cc3-c3cncnc3C3CC3)C2)C1 (single isomer, unassigned)", "KO-52 cells", "pIC50", 5.66),
    ("CC(C)[C@@H]([C@H]1C[C@@H](N2CC3(CCO3)C2)C1)N1CC2(CCN(c3ncnnc3Oc3ccc(F)cc3-c3ncncc3C3CC3)C2)C1 (single isomer, unassigned)", "KO-52 cells", "pIC50", 5.97),
    ("CC(C)[C@H]([C@H]1C[C@H](N2CC3(COC3)C2)C1)N1CC2(CCN(c3ncnnc3Oc3ccc(F)cc3-c3ncccc3C3CC3)C2)C1 (single isomer, unassigned)", "KO-52 cells", "pIC50", 5.40),
]

Please give the documented pIC50 of CC(C)C([C@H]1C[C@@H](N2CCC(F)(F)CC2)C1)N1CC2(CCN(c3ncnnc3Oc3ccc(F)cc3-c3cncnc3C3CC3)C2)C1 (some centres unmarked)
5.33

Tell me its pIC50 given CC(C)[C@@H]([C@H]1C[C@@H](N2CCC(C(=O)N(C)C)CC2)C1)N1CC2(CCN(c3ncnnc3Oc3ccc(F)cc3-c3ncncc3C3CC3)C2)C1 (single isomer, unassigned) as the entry.
5.01

---

Tested on: MOLM14 cells
Test: Proliferation assay, spheroid-like growth, MOLM14 (MLL-AF9 rearranged)
Format: cell-based, human
Settings: Homo sapiens, MOLM-14, 192 h, 8 days, confluence as measure of spheroid size, read-out: spheroid assay_OneTime MOLM14 IC50
pIC50: −log10 of the molar value.
Think of 7 as a floor: if pIC50 stands on it or above, it is Satisfied; beneath it, Not satisfied.

# molecule, target-of-assay, group
data = [
    ("CC(C)[C@H]([C@H]1C[C@@H](N2CCC[C@H](C(=O)N(C)C)C2)C1)N1CC2(CCN(c3ncnnc3Oc3ccc(F)cc3-c3cncnc3C3CC3)C2)C1 (single isomer, unassigned) [Compound 51]", "MOLM14 cells", "Satisfied"),
    ("Fc1ccc(Oc2nncnc2N2CCC3(C2)CN([C@H](C2CCN(CC4COC4)CC2)C24CC(C2)C4)C3)c(-c2cncnc2C2CC2)c1 (single isomer, unassigned) [Compound 335]", "MOLM14 cells", "Satisfied"),
    ("CC(C)[C@@H]([C@H]1C[C@@H](N2CCC(O)C(F)C2)C1)N1CC2(CCN(c3ncnnc3Oc3ccc(F)cc3-c3cncnc3C3CC3)C2)C1 (single isomer, unassigned) [Compound 85]", "MOLM14 cells", "Not satisfied"),
    ("CC(C)[C@@H]([C@H]1C[C@H](N2CC[C@H](C(=O)N(C)C)C2)C1)N1CC2(CCN(c3ncnnc3Oc3ccc(F)cc3-c3cnncc3C3CC3)C2)C1 (single isomer, unassigned) [Compound 117]", "MOLM14 cells", "Not satisfied"),
    ("CC(=O)N1CCC12CN([C@H]1C[C@@H]([C@@H](C(C)C)N3CC4(CCN(c5ncnnc5Oc5ccc(F)cc5-c5cncnc5C5CC5)C4)C3)C1)C2 (single isomer, unassigned) [Compound 172]", "MOLM14 cells", "Satisfied"),
    ("CC(C)[C@H]([C@H]1C[C@@H](N2CCCCC2)C1)N1CC2(CCN(c3ncnnc3Oc3ccc(F)cc3-c3cncnc3C3CC3)C2)C1 (single isomer, unassigned) [Compound 48]", "MOLM14 cells", "Satisfied"),
    ("CC(C)[C@@H]([C@H]1C[C@@H](N2C[C@H]3COC[C@H]3C2)C1)N1CC2(CCN(c3ncnnc3Oc3ccc(F)cc3-c3nnccc3C3CC3)C2)C1 (single isomer, unassigned) [Compound 258]", "MOLM14 cells", "Satisfied"),
    ("CO[C@H]1CCN([C@H]2C[C@@H]([C@@H](C(C)C)N3CC4(CCN(c5ncnnc5Oc5ccc(F)cc5-c5cnncc5C5CC5)C4)C3)C2)C1 (single isomer, unassigned) [Compound 81]", "MOLM14 cells", "Not satisfied"),
    ("CC(C)C([C@H]1C[C@H](N(C)C)C1)N1CC2(CCN(c3ncnnc3Oc3ccc(F)cc3-c3cncnc3C3CC3)C2)C1 (single isomer, unassigned) [Compound 8]", "MOLM14 cells", "Satisfied"),
    ("CC(=O)N1CC2(C1)CN([C@H]1C[C@@H]([C@H](C(C)C)N3CC4(CCN(c5ncnnc5Oc5ccc(F)cc5-c5cnc(C)nc5C5CC5)C4)C3)C1)C2 [Compound 394]", "MOLM14 cells", "Satisfied"),
]

// inclusive: pIC50 at least 7? input: COCC(=O)N[C@H]1C[C@@H]([C@@H](C(C)C)N2CC3(CCN(c4ncnnc4Oc4ccc(F)cc4-c4cncnc4C4CC4)C3)C2)C1 (single isomer, unassigned) [Compound 299]
Satisfied

API: above_or_equal(metric=pIC50, cutoff=7) for item CCOC(=O)c1nnc(N[C@H]2C[C@@H](C(C(C)C)N3CC4(CCN(c5ncnnc5Oc5ccc(F)cc5-c5cncnc5C5CC5)C4)C3)C2)o1 (single isomer, unassigned) [Compound 481]
Not satisfied

Would you say COc1cc(N[C@H]2C[C@@H]([C@@H](C(C)C)N3CC4(CCN(c5ncnnc5Oc5ccc(F)cc5-c5cncnc5C5CC5)C4)C3)C2)cnn1 (single isomer, unassigned) [Compound 419] shows pIC50 at minimum 7?
Satisfied

For this molecule, is measured pIC50 7 or higher? CC(C)C([C@H]1C[C@@H](Nc2ncccn2)C1)N1CC2(CCN(c3ncnnc3Oc3ccc(F)cc3-c3cncnc3C3CC3)C2)C1 (stereo partly shown) [Compound 192]
Not satisfied
